- measured.on: Cytochrome P450 2C9 (Homo sapiens, UniProt P11712)
- Sequence (P11712 whole entry): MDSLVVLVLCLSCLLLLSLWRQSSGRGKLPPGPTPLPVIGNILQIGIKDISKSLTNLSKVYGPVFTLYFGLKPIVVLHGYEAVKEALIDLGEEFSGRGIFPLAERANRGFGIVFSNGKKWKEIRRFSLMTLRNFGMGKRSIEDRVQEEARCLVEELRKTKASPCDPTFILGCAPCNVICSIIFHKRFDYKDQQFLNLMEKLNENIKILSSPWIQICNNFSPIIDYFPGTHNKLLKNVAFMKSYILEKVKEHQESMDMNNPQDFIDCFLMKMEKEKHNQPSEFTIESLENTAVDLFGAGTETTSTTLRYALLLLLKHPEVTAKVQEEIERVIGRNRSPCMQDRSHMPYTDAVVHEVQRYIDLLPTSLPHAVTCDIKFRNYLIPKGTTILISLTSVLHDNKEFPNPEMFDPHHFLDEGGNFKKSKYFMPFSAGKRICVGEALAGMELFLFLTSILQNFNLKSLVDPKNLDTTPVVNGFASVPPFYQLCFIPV
pIC50: −log10 of the molar value.
assay.endpoint: pIC50

Problem: State pIC50 on Cytochrome P450 2C9 (Homo sapiens, UniProt P11712). Entry: C[C@H]1COCCN1c1nc(-c2cnc(N)cc2F)cc(C2(S(C)(=O)=O)CC2)n1
Solution: < 5.00

src = ChEMBL document CHEMBL4196123
